For each entry below, report its remaining activity at 10 µM value.
# subject-of-test: cathepsin G (Homo sapiens, UniProt P08311)
# Construct: purified cathepsin G (0.2 µg) from human neutrophils; purchased Calbiochem; host or cells: human neutrophils (natural source)
# Sequence (P08311 21-244 limits assumed): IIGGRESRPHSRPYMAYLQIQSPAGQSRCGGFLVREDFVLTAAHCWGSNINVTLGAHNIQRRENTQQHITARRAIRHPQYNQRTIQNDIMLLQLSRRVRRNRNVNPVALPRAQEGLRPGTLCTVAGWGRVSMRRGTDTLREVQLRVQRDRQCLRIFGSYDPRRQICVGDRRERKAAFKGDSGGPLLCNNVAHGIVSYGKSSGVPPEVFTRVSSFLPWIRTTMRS
# run-description: Cathepsin G activity in a cell-free assay (Suc-AAPF-pNA substrate)
# Format: biochemical
# reported-conditions: residual activity at 10 µM; cell-free; mean ± SEM, 3–4 experiments; read-out: Cat. G Activity [% Control]
Please state the figure in %; there is no need to write the unit.

Given the entry "C[C@H]1[C@H](C)CC[C@]2(C)CC[C@]3(C)C(=CC[C@@H]4[C@@]5(C)CC[C@@H](OC(=O)CCCC(=O)O)[C@](C)(C(=O)O)[C@@H]5CC[C@]43C)[C@H]12" , report its measured remaining activity at 10 µM.
24.5

Given the entry "CC(C)=CCC[C@H](C(=O)O)[C@@H]1CC[C@]2(C)C3=C(CC[C@@]12C)[C@@]1(C)CC[C@@H](O)C(C)(C)[C@@H]1CC3" , report its measured remaining activity at 10 µM.
73

Given the entry "C[C@H]1[C@H](C)CC[C@]2(C)CC[C@]3(C)C(=CC[C@@H]4[C@@]5(C)CC[C@@H](OC(=O)C(=O)O)[C@](C)(C(=O)O)[C@@H]5CC[C@]43C)[C@H]12" , report its measured remaining activity at 10 µM.
38.1

Given the entry "CC(=O)O[C@@H]1CC[C@@]2(C)[C@@H](CC[C@]3(C)[C@@H]2C(=O)C=C2[C@@H]4[C@@H](C)[C@H](C)CC[C@]4(C)CC[C@]23C)[C@@]1(C)C(=O)O" , report its measured remaining activity at 10 µM.
14.8

---

# subject-of-test: 5-LO (Homo sapiens, UniProt P09917)
# Sequence (P09917 whole entry): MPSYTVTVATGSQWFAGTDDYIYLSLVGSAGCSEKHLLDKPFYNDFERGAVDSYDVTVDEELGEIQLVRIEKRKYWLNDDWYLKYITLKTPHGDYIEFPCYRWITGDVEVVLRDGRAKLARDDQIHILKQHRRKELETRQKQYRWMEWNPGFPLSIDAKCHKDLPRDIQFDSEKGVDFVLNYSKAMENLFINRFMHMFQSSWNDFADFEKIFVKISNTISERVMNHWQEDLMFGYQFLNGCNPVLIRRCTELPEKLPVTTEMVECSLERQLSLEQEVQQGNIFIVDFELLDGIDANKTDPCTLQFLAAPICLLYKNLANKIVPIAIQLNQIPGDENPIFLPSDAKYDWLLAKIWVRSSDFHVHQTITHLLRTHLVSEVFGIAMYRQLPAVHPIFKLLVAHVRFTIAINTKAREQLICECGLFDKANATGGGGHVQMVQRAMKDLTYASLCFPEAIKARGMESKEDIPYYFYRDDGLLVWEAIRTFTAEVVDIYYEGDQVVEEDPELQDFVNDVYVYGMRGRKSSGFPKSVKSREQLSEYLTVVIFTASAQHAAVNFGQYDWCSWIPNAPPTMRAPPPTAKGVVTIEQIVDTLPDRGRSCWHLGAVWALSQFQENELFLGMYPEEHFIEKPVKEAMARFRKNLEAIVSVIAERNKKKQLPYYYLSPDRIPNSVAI
# run-description: 5-LO activity in a cell-free assay (isolated human recombinant 5-LO, 20 µM arachidonic acid)
# Format: biochemical
# Parameters: made in house; host or cells: Escherichia coli BL21 (pT3-5-LO plasmid)
# reported-conditions: residual activity at 10 µM; isolated 5-LO, 20 µM arachidonic acid; mean ± SEM, 3–4 experiments; read-out: 5-LO Activity [% Control] cell-free
Heads up, the class ranges for remaining activity at 10 µM are A = under 60%, B = from 60% up to 80%, C = 80% and over

Bin? "C[C@H]1[C@H](C)CC[C@]2(C)CC[C@]3(C)C(=CC[C@@H]4[C@@]5(C)CC[C@@H](OC(=O)CCC(=O)O)[C@](C)(C(=O)O)[C@@H]5CC[C@]43C)[C@H]12"
C

Bin? "CC(C)=CCC[C@H](C(=O)O)[C@@H]1CC[C@]2(C)C3=C(CC[C@@]12C)[C@@]1(C)CC[C@H](O)C(C)(C)[C@@H]1CC3"
B

Bin? "CC(=O)O[C@@H]1CC[C@@]2(C)[C@@H](CC[C@]3(C)[C@@H]2C(=O)C=C2[C@@H]4[C@@H](C)[C@H](C)CC[C@]4(C)CC[C@]23C)[C@@]1(C)C(=O)O"
A

Bin? "CC(C)=CCC[C@H](C(=O)O)[C@@H]1CC[C@]2(C)C3=C(CC[C@@]12C)[C@@]1(C)CC[C@@H](O)C(C)(C)[C@@H]1CC3"
B

Bin? "C[C@H]1[C@H](C)CC[C@]2(C)CC[C@]3(C)C(=CC(=O)[C@@H]4[C@@]5(C)CC[C@@H](OC(=O)CCC(=O)O)[C@](C)(C(=O)O)[C@@H]5CC[C@]43C)[C@H]12"
B

Bin? C[C@H]1[C@H](C)CC[C@]2(C)CC[C@]3(C)C(=C[C@@H](O)[C@@H]4[C@@]5(C)CC[C@@H](O)[C@](C)(C(=O)O)[C@@H]5CC[C@]43C)[C@H]12 [compound 18, 11α-Hydroxy-β-boswellic acid]
B

Bin? "C=C(C)[C@@H]1CC[C@]2(C)CC[C@]3(C)[C@H](CC[C@@H]4[C@@]5(C)CC[C@@H](O)[C@](C)(C(=O)O)[C@@H]5CC[C@]43C)[C@@H]12"
B

Bin? "C=C(C)[C@@H]1CC[C@]2(CO)CC[C@]3(C)[C@H](CC[C@@H]4[C@@]5(C)CC[C@@H](O)[C@](C)(C(=O)O)[C@@H]5CC[C@]43C)[C@@H]12"
A

Bin? C[C@H]1[C@H](C)CC[C@]2(C)CC[C@]3(C)C(=C[C@H](O)[C@@H]4[C@@]5(C)CC[C@@H](O)[C@](C)(C(=O)O)[C@@H]5CC[C@]43C)[C@H]12 [compound 19, 11β-hydroxy-β-boswellic acid]
C

Bin? "CC(C)=CCC[C@H](C(=O)O)[C@@H]1CC[C@]2(C)C3=C(CC[C@@]12C)[C@@]1(C)CCC(=O)C(C)(C)[C@@H]1CC3"
B

Bin? "CC(=O)O[C@@H]1CC[C@@]2(C)[C@@H](CC[C@]3(C)[C@@H]2CC=C2[C@@H]4[C@@H](C)[C@H](C)CC[C@]4(C)CC[C@]23C)[C@@]1(C)C(=O)O"
B

Bin? "C[C@H]1[C@H](C)CC[C@]2(C)CC[C@]3(C)C(=CC(=O)[C@@H]4[C@@]5(C)CC[C@@H](O)[C@](C)(C(=O)O)[C@@H]5CC[C@]43C)[C@H]12"
A

Bin? "C=C(C)[C@@H]1CC[C@]2(CO)CC[C@]3(C)[C@H](CC[C@@H]4[C@@]5(C)CC[C@@H](OC(C)=O)[C@](C)(C(=O)O)[C@@H]5CC[C@]43C)[C@@H]12"
A
